# pIC50 per record follows
Target: Neuromedin-K receptor (Rattus norvegicus)
Sequence (P16177 whole entry): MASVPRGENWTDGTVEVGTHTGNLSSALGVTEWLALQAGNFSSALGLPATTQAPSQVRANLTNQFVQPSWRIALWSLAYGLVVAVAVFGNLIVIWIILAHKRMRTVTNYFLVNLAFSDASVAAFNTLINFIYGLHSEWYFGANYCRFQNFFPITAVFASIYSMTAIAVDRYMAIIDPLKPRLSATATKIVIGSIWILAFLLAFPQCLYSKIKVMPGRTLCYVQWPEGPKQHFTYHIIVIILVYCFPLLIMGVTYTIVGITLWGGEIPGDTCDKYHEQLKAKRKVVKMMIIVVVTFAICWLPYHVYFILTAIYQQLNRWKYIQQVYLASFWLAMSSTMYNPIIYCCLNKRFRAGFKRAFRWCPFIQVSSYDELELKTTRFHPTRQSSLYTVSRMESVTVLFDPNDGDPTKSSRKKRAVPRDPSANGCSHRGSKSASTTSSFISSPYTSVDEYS
Test: Concentration required to inhibit the specific binding of [125I]BH-ELE to Neurokinin-3 (NK-3) receptor in rat brain synaptosomes
pIC50: −log10 of the molar value.

Observe how each entry below is paired with its result.
{"STRUCTURE_STRING": "CSCC[C@H](NC(=O)[C@H](CC(C)C)NC(=O)[C@@H]1CCCN1C(=O)[C@H](Cc1ccccc1)NC(=O)[C@H](Cc1ccccc1)NC(=O)[C@H](CCC(N)=O)NC(=O)[C@H](CCC(N)=O)NC(=O)[C@@H]1CCCN1C(=O)[C@H](CCCCN)NC(=O)[C@@H]1CCCN1C(=O)[C@@H](N)CCCN=C(N)N)C(N)=O", "pIC50": "< 5.00"}
{"STRUCTURE_STRING": "CSCC[C@H](NC(=O)[C@H](CC(C)C)NC(=O)CNC(=O)[C@H](Cc1ccccc1)NC(=O)/C(=C/c1ccccc1)NC(=O)[C@H](CCC(N)=O)NC(=O)[C@H](CCC(N)=O)NC(=O)[C@@H]1CCCN1C(=O)[C@H](CCCCN)NC(=O)[C@@H]1CCCN1C(=O)[C@@H](N)CCCN=C(N)N)C(N)=O", "pIC50": "< 5.00"}

# next compound below
Query: pIC50; subject: `CSCC[C@H](NC(=O)[C@H](CC(C)C)NC(=O)CNC(=O)[C@H](Cc1ccccc1)NC(=O)[C@@H](NC(=O)[C@H](CCC(N)=O)NC(=O)[C@H](CCC(N)=O)NC(=O)[C@@H]1CCCN1C(=O)[C@H](CCCCN)NC(=O)[C@@H]1CCCN1C(=O)[C@@H](N)CCCN=C(N)N)C1Cc2ccccc2C1)C(N)=O` < 5.00
